I'd be grateful if you could share measured pre-steady-state target cleavage rate for these entries.
System: MIWI (PIWIL1) piRISC loaded with L1MC piRNA (30 nt);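 also: 1 nM active piRISC with 0.1 nM target library at 33 °C single turnover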
Procedure Details: pre-steady-state target cleavage rate (min^-1); higher = faster piRNA-guided slicing of the target
Assay Conditions: guide: L1MC piRNA 5'p-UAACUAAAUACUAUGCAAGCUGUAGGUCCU; auxiliary factor: none (no GTSF1)
Whole data set: some 8,200 sequences, median “pre-steady-state target cleavage rate” near 0.024, cut for the highest 2% near 1.3. Many of the other results were omitted from the sample, so the highest values are more common in it than they were.
One number for each entry.

Example results:
>  <Seq Text>
AGGACGUAGAGCUUGCAUAGUAUUUAGUUA

>  <pre-steady-state target cleavage rate>
0.047

$$$$
>  <Seq Text>
UCCUGGAACAGGUAGCAUAGUAUUUAGUUA

>  <pre-steady-state target cleavage rate>
0.00407

$$$$
>  <Seq Text>
UCCUGGAUCAGCUUGCAUCGUAUUUAGUUA

>  <pre-steady-state target cleavage rate>
0.032

$$$$
>  <Seq Text>
UCCUGGAUGAGCUUGCUUAGAAUUUAGUUA

>  <pre-steady-state target cleavage rate>
0.00574

$$$$
>  <Seq Text>
UCCUGGAACACCUUGCAUAGUUUUUAGUUA

>  <pre-steady-state target cleavage rate>
0.0142

$$$$

Okay, here is my list. What is pre-steady-state target cleavage rate for each of these?
1. AGGACGUUCAGCUUGCAUAGUAUUUAGUUA
2. AGACCUACAGCUUGCAUAGUAUUUAGUUA
3. UGGACGUUCAGCUUGCAUAGUAUUUAGUUA
4. UCGACGUUCAGCUUGCAUAGUAUUUAGUUA
5. UCCUGCUACAGCUUGCAUAGUAUUUAGUA
6. AGGACCUACACCUUGCAUAGUAUUAAGUUA
7. AAGACCUACAGCUUGCAUAGUAUUUAGUUA
8. UCCACCUUCAGCUUGCAUAGUAUUUAGUUA

0.0669
0.0902
0.0691
0.0748
0.00464
0.0334
0.0921
0.0531

====

Tested on: MIWI (PIWIL1) piRISC loaded with L1MC piRNA (30 nt);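 also: 1 nM active piRISC with 0.1 nM target library at 33 °C single turnover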
Procedure Details: pre-steady-state target cleavage rate (min^-1); MIWI and MILI are mouse PIWI proteins and EfPiwi is from a freshwater sponge; tags in brackets are library labels; higher = faster piRNA-guided slicing of the target;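 also: 1 nM active piRISC with 0.1 nM target library at 33 °C single turnover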
Assay Conditions: guide: L1MC piRNA 5'p-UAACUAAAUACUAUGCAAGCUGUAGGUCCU; auxiliary factor: none (no GTSF1)
Whole data set: some 8,200 sequences, median “pre-steady-state target cleavage rate” near 0.024, cut for the highest 2% near 1.3. Many of the other results were omitted from the sample, so the highest values are more common in it than they were.
Everything with pre-steady-state target cleavage rate lower than 0.03 is condition not met; everything else, including exactly 0.03, is condition met.

Here's what some known entries look like.
>  <Seq Text>
UCGAGCUACAGCUUGCAUAGUAUUUAGUUA

>  <Category>
condition met

$$$$
>  <Seq Text>
UCCUGGAUGAGGUUGCAUAGUAUUUAGUUA

>  <Category>
condition not met

$$$$
>  <Seq Text>
ACGAGCUACAGCUUGCAUAGUAUUUAGUUA

>  <Category>
condition met

$$$$
>  <Seq Text>
UCGAGCUACAGCUUGCAUAGUAUUUAGUAA

>  <Category>
condition met

$$$$
>  <Seq Text>
UGGACCUACAGCUUGCAUAUAUUUAGUUA

>  <Category>
condition not met

$$$$
>  <Seq Text>
UCCUGGAUCAGCUUGCAUUGUUUUUAGUUA

>  <Category>
condition not met

$$$$

State whether the measured pre-steady-state target cleavage rate reaches 0.03, counting equality as reaching it, for `UCGACCUACAGCUUGCAUAGUUAUUUAGUUA`
condition not met
